Data credit: paper PMC3220491

Target chain: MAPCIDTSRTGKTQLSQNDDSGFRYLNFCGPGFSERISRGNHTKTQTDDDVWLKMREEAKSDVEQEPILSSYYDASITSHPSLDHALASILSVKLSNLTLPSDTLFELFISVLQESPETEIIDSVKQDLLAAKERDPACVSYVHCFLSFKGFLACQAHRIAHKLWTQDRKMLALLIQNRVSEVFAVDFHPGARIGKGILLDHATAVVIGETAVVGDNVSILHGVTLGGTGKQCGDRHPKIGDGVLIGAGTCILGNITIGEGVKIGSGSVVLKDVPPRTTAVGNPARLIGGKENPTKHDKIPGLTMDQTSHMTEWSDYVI
pIC50: −log10 of the molar value.

compound: N[C@@H](CS)C(=O)O [L-Cys]
pIC50: < 4.00

====

biological target: AtSAT-c (Arabidopsis thaliana, UniProt Q42538, C268P); assay: SAT activity, acetyl-CoA decrease at […] nm
pIC50: −log10 of the molar value.

molecule: N[C@@H](CS)C(=O)O [L-Cys]
pIC50: 4.08

====

Target: AtSAT-c (Arabidopsis thaliana, UniProt Q42538, C268P/G270A)
Sequence (Q42538 1-312 C268P/G270A): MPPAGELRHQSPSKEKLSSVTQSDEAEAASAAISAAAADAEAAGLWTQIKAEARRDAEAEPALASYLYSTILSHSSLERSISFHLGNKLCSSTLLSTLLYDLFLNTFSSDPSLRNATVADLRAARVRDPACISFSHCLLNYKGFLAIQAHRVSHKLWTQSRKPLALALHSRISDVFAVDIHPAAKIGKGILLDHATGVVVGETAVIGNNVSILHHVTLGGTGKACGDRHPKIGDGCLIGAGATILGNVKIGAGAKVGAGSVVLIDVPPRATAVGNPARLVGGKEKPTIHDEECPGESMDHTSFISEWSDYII
Test: SAT activity, acetyl-CoA decrease at […] nm
pIC50: −log10 of the molar value.
observable: pIC50

mol: N[C@@H](CS)C(=O)O
measured.value: < 4.00

====

Target: AtSAT-c (Arabidopsis thaliana, UniProt Q42538)
Sequence (Q42538 1-312): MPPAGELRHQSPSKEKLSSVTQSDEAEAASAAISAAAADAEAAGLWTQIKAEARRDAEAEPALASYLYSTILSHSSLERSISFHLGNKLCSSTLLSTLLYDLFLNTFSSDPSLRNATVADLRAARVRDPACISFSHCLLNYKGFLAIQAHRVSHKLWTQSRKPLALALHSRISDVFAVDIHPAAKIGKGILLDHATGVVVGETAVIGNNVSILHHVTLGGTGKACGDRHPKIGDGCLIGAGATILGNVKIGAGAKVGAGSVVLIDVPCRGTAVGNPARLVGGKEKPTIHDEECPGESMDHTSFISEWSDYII

mol: N[C@@H](CS)C(=O)O
target: AtSAT-c (Arabidopsis thaliana, UniProt Q42538)
quantity.unit: µM
IC50: 3.3

====

biological target: TgSAT-m (Noccaea goesingensis)
Sequence (Q6IWG0 1-395): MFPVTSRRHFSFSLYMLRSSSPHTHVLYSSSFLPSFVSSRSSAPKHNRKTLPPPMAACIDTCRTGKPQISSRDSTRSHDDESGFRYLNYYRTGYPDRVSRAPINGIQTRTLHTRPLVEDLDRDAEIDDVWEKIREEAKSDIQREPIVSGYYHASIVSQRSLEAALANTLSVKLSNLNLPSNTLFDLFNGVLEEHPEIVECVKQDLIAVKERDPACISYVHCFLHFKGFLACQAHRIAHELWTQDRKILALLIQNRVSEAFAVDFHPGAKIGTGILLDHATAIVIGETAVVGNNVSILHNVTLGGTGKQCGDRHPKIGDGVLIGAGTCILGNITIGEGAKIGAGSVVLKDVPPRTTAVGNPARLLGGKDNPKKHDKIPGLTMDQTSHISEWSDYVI

mol: N[C@@H](CS)C(=O)O
IC50: > 100 µM

====

molecular target: AtSAT-c (Arabidopsis thaliana, UniProt Q42538, G270A); assay: SAT activity, acetyl-CoA decrease at […] nm
observable: IC50

compound: N[C@@H](CS)C(=O)O [L-Cys]
observable: IC50
measured.value: 17.7 µM

====

Biological target: TgSAT-c (Noccaea goesingensis, UniProt Q6IWF8)
Sequence (Q6IWF8 1-311): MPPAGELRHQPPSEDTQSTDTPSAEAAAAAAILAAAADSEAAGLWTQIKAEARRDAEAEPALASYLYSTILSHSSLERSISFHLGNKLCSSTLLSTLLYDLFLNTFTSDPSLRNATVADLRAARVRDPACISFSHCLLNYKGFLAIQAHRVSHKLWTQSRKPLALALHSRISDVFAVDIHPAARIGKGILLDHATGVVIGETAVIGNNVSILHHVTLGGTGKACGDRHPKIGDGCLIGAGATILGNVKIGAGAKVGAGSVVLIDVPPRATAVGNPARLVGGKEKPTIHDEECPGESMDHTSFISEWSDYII

compound: N[C@@H](CS)C(=O)O [L-Cys]
IC50: > 100 µM
